Source of measurements: patent US20250346584A1

target: kappa opioid receptor (OPRK1) (Homo sapiens (Human)); test: OPRK1 antagonist assay (b-arrestin-2-TEV / b-lactamase reporter cell line, EC80 U-50488 challenge); assay type: cell-based; details: read-out: IC50 nM (% inhib if other than 50%); antagonist mode vs EC80 U-50488; NA = not active at concentrations up to 10 μM
Sequence (P41145 whole entry): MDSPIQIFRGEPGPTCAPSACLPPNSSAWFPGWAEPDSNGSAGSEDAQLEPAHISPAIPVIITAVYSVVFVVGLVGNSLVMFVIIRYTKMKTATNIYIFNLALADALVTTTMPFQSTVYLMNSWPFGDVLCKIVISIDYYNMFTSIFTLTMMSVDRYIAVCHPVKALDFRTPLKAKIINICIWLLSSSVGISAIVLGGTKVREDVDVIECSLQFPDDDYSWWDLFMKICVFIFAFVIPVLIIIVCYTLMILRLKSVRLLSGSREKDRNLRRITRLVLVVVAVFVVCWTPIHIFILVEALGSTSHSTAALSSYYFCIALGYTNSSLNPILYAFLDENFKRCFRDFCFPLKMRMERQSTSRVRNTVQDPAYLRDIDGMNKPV
property.name: IC50 (nM)

Would you please look over these solved cases?
- smiles: "Cc1noc(-c2cc3ccccc3nc2N2CCC(NC3CCOCC3)CC2)n1"
  units.of.measure: "nM"
  IC50: 8
- smiles: "CO[C@H]1CN(c2nc3cccc(F)c3cc2-c2nc(C)no2)CC[C@H]1NC1CCCCC1"
  units.of.measure: "nM"
  IC50: 19

[1] Cc1cnc(-c2cc3ccccc3nc2N2CCC(NC3CCCCC3)CC2)cn1
[2] CO[C@H]1CN(c2nc3ccc(F)cc3cc2-c2nc(C)no2)CC[C@H]1NC1CCCCC1
I'm curious, which of these has a smaller IC50 number: 1 or 2 ? // return label of chosen record
2
(2: 10 nM, 1: 24 nM)
